tested on: DU-145 human prostate carcinoma cells; assay: MTS cell viability assay, DU-145 prostate carcinoma cells; assay type: cell-based; conditions: DU-145, 4 hours with compound, MTS, read-out: IC50 Values, Cancerous Cells, Prostate DU-145
endpointName: IC50 (µM)
Just the number please, in µM, no unit attached.

Some solved cases for reference:
O=C1C(=O)c2ccccc2C2=C1SCC(CNCc1ccccc1)O2 (centres unmarked) [Compound 7]; 4.22
O=C(Nc1ccccc1)OCC1CSC2=C(O1)c1ccccc1C(=O)C2=O (centres unmarked) [Compound 11]; 4.05
CC(C)NC(=O)OCC1CSC2=C(O1)c1ccccc1C(=O)C2=O (centres unmarked) [Compound 12]; 3.72

Input: Look up IC50: O=C1C(=O)c2ccccc2C2=C1SCC(CNCCc1ccccc1)O2 (centres unmarked) [Compound 6]
Output: 4.67

###

pIC50 values for the compounds below.
tested on: A549 human lung carcinoma cells; experiment: MTS cell viability assay, A549 lung carcinoma cells; type: cell-based; details: A549, 4 hours with compound, MTS, read-out: IC50 Values, Cancerous Cells, Lung A549
pIC50: −log10 of the molar value.

Answered cases to consult:
O=C1C(=O)c2ccccc2C2=C1SCC(CN1CCN(c3ccc(F)cc3)CC1)O2 (stereo not drawn) [Compound 5]; 5.32
CC1CSC2=C(O1)c1cc(N3CCCCC3)ccc1C(=O)C2=O (stereo not drawn) [Compound 15]; < 4.00

In the following, a different compound is considered.
Input: Quick check: pIC50 of CC1CSC2=C(O1)c1cc(-c3ccccc3)ccc1C(=O)C2=O (stereo not drawn) [Compound 14] ?
Output: < 4.00

Reference source: patent US8067459B2
